Where do these numbers come from? They come from patent US20050267182A1.

Test system: MV4,11 cells
MEASUREMENT NOTES: FLT3 assay using MV4,11 cells (cellular proliferation, MTS)
Format: cell-based, human
EXPERIMENTAL CONTEXT: cell assay code CS0001
Experimental: The ability of FLT3 kinase inhibitors to inhibit cellular proliferation was also examined. MV4:11 was a cell line derived from a patient with acute myelogenous leukemia. FLT3 Assay Using MV4,11 Cells MV4,11 cells were grown in an incubator @ 37° C. in 5% CO2 in Medium 2 (RPMI, 10% FBS, 4 mM glutamine, Penn/Strep). The cells were counted daily and the cell density was kept between 1e5 and 8e5 cells/ml. […] Day Two: The cells were counted and enough medium 3 was added to decrease density to 2e5 cells/ml. […]
MEASURE NAME: Cell Assay: CS0001:IC50

Below are worked cases with known answers.
| COMPOUND | READOUT VALUE |
| --- | --- |
| CC(C)(C)c1cc(NC(=O)Nc2ccc(NC(=O)c3ccc4sccc4c3)cc2)no1 | + + + + |
| CC(C)(C)c1cc(NC(=O)Nc2ccc(NC(=O)CCc3ccccc3)cc2)no1 | + + + + |
| CC(C)(C)c1cc(NC(=O)Nc2ccc(NC(=O)c3nocc3C(C)(C)C)cc2)no1 | + + + |
| CC(C)(C)c1cc(NC(=O)Nc2ccc(NC(=O)c3nnsc3Sc3ccc(C(F)(F)F)cc3)cc2)no1 | + + + |
| CC(C)(C)c1cc(NC(=O)Nc2ccc(NC(=O)c3cnc4cc(C(F)(F)F)ccc4c3O)cc2)no1 | + + + |

Quote Cell Assay: CS0001:IC50 reported for CC(C)(C)c1cc(NC(=O)Nc2ccc(NC(=O)c3cccnc3C(=O)O)cc2)no1 please.
+ + + +

Quote Cell Assay: CS0001:IC50 reported for CC(C)(C)c1cc(NC(=O)Nc2ccc(NC(=O)c3nccnc3C(N)=O)cc2)no1 please.
+ +

Quote Cell Assay: CS0001:IC50 reported for Cn1nc(C(C)(C)C)cc1NC(=O)Nc1ccc(OCc2ccccc2)cc1 please.
+ + + +

Quote Cell Assay: CS0001:IC50 reported for CC(C)(C)c1cc(NC(=O)Nc2ccc(NC(=O)c3csnn3)cc2)no1 please.
+ + +

Quote Cell Assay: CS0001:IC50 reported for CN(C)c1ccc(C(=O)Nc2ccc(NC(=O)Nc3cc(C(C)(C)C)on3)cc2)cn1 please.
+ + + +

Quote Cell Assay: CS0001:IC50 reported for Cc1cccnc1C(=O)Nc1ccc(NC(=O)Nc2cc(C(C)(C)C)on2)cc1 please.
+ + + +

Quote Cell Assay: CS0001:IC50 reported for CC(C)(C)c1cc(NC(=O)Nc2ccc(NC(=O)CC(N)c3ccccc3Cl)cc2)no1 (centres unmarked) please.
+ +

Quote Cell Assay: CS0001:IC50 reported for CC(C)(C)c1cc(NC(=O)Nc2ccc(Nc3cc(N)nc(N)n3)cc2)no1 please.
+ + + +

Quote Cell Assay: CS0001:IC50 reported for CC(C)(C)c1cc(NC(=O)Nc2ccc(NC(=O)c3ccc4ccccc4c3)cc2)no1 please.
+ + + +

Quote Cell Assay: CS0001:IC50 reported for CC(C)(C)c1cc(NC(=O)Nc2ccc(NC(=O)Cc3ccccc3)cc2)no1 please.
+ +

Quote Cell Assay: CS0001:IC50 reported for Cn1cc(C(=O)Nc2ccc(NC(=O)Nc3cc(C(C)(C)C)on3)cc2)c2ccccc21 please.
+ + + +

Quote Cell Assay: CS0001:IC50 reported for COc1cc(NC(=O)c2cn3nc(Cl)ccc3n2)ccc1NC(=O)Nc1cc(C(C)(C)C)on1 please.
+ + +

Quote Cell Assay: CS0001:IC50 reported for COc1cc(OC)nc(C2CCCCC2C(=O)Nc2ccc(NC(=O)Nc3cc(C(C)(C)C)on3)cc2)n1 (centres unmarked) please.
+ + +

Quote Cell Assay: CS0001:IC50 reported for CC(=O)c1c(NC(=O)Nc2ccc(Cl)c(Cl)c2)sc2c1CCCC2 please.
+ + +

Quote Cell Assay: CS0001:IC50 reported for CC(C)(C)c1cc(NC(=O)Nc2ccc(OC/C=C/c3ccccc3Cl)cc2)no1 please.
+ + + +

Quote Cell Assay: CS0001:IC50 reported for CC(C)(C)c1cc(NC(=O)Nc2ccc(NC(=O)c3cccc(Br)c3)cc2)no1 please.
+ +

Quote Cell Assay: CS0001:IC50 reported for CC(C)(C)c1cc(NC(=O)Nc2ccc(C(=O)Nc3ccccc3)cc2)no1 please.
+ + +

Quote Cell Assay: CS0001:IC50 reported for CC(C)(C)c1cc(NC(=O)Nc2ccc(Nc3nc(N)nc4[nH]cnc34)cc2)no1 please.
+ + + +

Quote Cell Assay: CS0001:IC50 reported for Cn1nc(-c2ccccc2)c(C(=O)Nc2ccc(NC(=O)Nc3cc(C(C)(C)C)on3)cc2)c1Cl please.
+ +

Quote Cell Assay: CS0001:IC50 reported for CC(C)(C)c1cc(NC(=O)Nc2ccc(OCc3ccc(F)cc3)cc2)no1 please.
+ + + +

Quote Cell Assay: CS0001:IC50 reported for CC(C)(C)c1cc(NC(=O)Nc2ccc(NC(=O)c3cccc4nsnc34)cc2)no1 please.
+ + + +

====

TARGET: FLT3 (Homo sapiens)
Construct: FLT3(DKIN); made in house
Sequence (P36888 610-943 limits assumed): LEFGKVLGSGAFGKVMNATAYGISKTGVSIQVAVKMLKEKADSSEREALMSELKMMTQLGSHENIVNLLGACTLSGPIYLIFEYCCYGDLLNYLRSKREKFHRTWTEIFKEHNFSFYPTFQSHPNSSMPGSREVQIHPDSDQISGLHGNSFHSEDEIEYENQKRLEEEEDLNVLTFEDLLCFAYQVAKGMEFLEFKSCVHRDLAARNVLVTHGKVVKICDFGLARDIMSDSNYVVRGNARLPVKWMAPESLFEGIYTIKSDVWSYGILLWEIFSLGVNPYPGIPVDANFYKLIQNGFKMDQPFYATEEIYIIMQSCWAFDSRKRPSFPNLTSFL
MEASUREMENT NOTES: Binding constant (Kd) measurement, phage-displayed kinase competition binding assay
EXPERIMENTAL CONTEXT: FLT3(DKIN) construct
MEASURE NAME: Binding Assay: FLT3(DKIN)

| COMPOUND | READOUT VALUE |
| --- | --- |
| CC(C)(C)c1cc(NC(=O)Nc2ccc(OC(F)F)cc2)no1 [Compound A12] | + + |
| CC(=O)c1ccc(N2CCC(C(=O)Nc3ccc(NC(=O)Nc4cc(C(C)(C)C)on4)cc3)CC2)cc1 [Compound N65] | + + + + |
| CC(C)(C)c1cc(NC(=O)Nc2ccc(C(=O)NCc3ccc4c(c3)OCO4)cc2)no1 [Compound N97] | + + + |
| Cc1cnc(C(=O)Nc2ccc(NC(=O)Nc3cc(C(C)(C)C)on3)cc2)cn1 [Compound O2] | + + + + |
| CC(C)(C)c1cc(N2CCCN(c3ccc(OCc4ccccc4)cc3)C2=O)on1 [Compound E2] | + + + |

Quote Binding Assay: FLT3(DKIN) reported for O=C(Nc1ccc(Cl)cc1)Nc1cc(C2CC2)nn1-c1ccccc1 [Compound D2] please.
+ + + +

Quote Binding Assay: FLT3(DKIN) reported for CC(C)(C)c1cc(NC(=O)Nc2ccc(NC(=O)Cc3sc(-c4ccc(Cl)cc4)nc3-c3ccccc3)cc2)no1 [Compound N66] please.
+ + + +

Quote Binding Assay: FLT3(DKIN) reported for CC(C)(C)c1cc(NC(=O)Nc2ccc(NC(=O)c3ncccc3C(N)=O)cc2)no1 [Compound N6] please.
+ + +

====

Tested on: MV4,11 cells
MEASUREMENT NOTES: FLT3 assay using MV4,11 cells (cellular proliferation, MTS)
Type: cell-based, human
EXPERIMENTAL CONTEXT: cell assay code CS0001
MEASURE NAME: Cell Assay: CS0001:IC50

| MOLECULAR STRING | TARGET | READOUT VALUE |
| --- | --- | --- |
| CC(C)Oc1ccc(NC(=O)Nc2cc(C(C)(C)C)no2)cc1 | MV4,11 cells | + + + |
| CC(C)(C)c1cc(NC(=O)Nc2ccc(OCCN3CCC(O)CC3)cc2)no1 | MV4,11 cells | + + |
| Cn1nc(C(C)(C)C)cc1C(=O)Nc1ccc(NC(=O)Nc2cc(C(C)(C)C)on2)cc1 | MV4,11 cells | + + + |
| Cc1ncccc1C(=O)Nc1ccc(NC(=O)Nc2cc(C(C)(C)C)on2)cc1 | MV4,11 cells | + + + |

====

TARGET: FLT3 (Homo sapiens, UniProt P36888)
Construct: FLT3(DKIN); made in house
MEASUREMENT NOTES: Binding constant (Kd) measurement, phage-displayed kinase competition binding assay
EXPERIMENTAL CONTEXT: FLT3(DKIN) construct
MEASURE NAME: Binding Assay: FLT3(DKIN)

| COMPOUND | MEASURE NAME | READOUT VALUE |
| --- | --- | --- |
| CC(C)(C)c1cc(NC(=O)Nc2ccc(CCc3ccc(N)cc3)cc2)no1 [Compound A3] | Binding Assay: FLT3(DKIN) | + + + + |
| Cc1ccc(-n2nc(C(C)(C)C)cc2NC(=O)Nc2ccc(OCc3ccccc3)cc2)cc1 [Compound H5] | Binding Assay: FLT3(DKIN) | + + + + |
| CC(C)(C)c1cc(NC(=O)Nc2ccc(OCCc3ccccc3F)cc2)no1 [Compound G25] | Binding Assay: FLT3(DKIN) | + + + + |
| CC(C)(C)c1cc(NC(=O)Nc2ccc(NC(=O)c3ccc4ccccc4c3)cc2)no1 [Compound N28] | Binding Assay: FLT3(DKIN) | + + + + |
| CC(C)(C)c1cc(NC(=O)Nc2ccc(OCc3cc(F)cc(F)c3)cc2)no1 [Compound G16] | Binding Assay: FLT3(DKIN) | + + + + |

Quote Binding Assay: FLT3(DKIN) reported for Cc1ccc(CNc2ccc(NC(=O)Nc3cc(C(C)(C)C)on3)cc2)cc1 [Compound O9] please.
+ + + +

Quote Binding Assay: FLT3(DKIN) reported for CC(C)(C)c1cc(NC(=O)Nc2ccc(NC(=O)c3c4ccccc4nc4ccccc34)cc2)no1 [Compound N148] please.
+ + +

Quote Binding Assay: FLT3(DKIN) reported for O=C(Nc1cccc(Cl)c1)Nc1cc(C(F)(F)F)cc(Cl)n1 [Compound Z74] please.
+ + +
